meta.source: patent US8952024B2

Test system: wheat (Triticum aestivum)
measurement protocol: Test B pre-/postemergence plant response
Type: in vivo
settings: Postemergence, 250 g ai/ha; scale 0 to 100 (0 no effect, 100 complete control); 13 to 15 days
Exercise: for every item that follows, state its recorded Plant response rating, Wheat.
Could you respond with only the numeric value?

Reported Plant response rating, Wheat, molecule CCc1cccc(-n2c(-c3ccccc3)ncc(C(=O)C3=C(O)CCCC3=O)c2=O)c1 [Compound 220] : ____ 15

Would you mind doing CCCCn1c(C2CC2)ncc(C(=O)C2=C(O)CCCC2=O)c1=O [Compound 193] as well? 60

Would you mind doing CCCc1ncc(C(=O)C2=C(O)CCCC2=O)c(=O)n1-c1ccccc1 [Compound 217] as well? 50

Would you mind doing CCCCn1c(-c2ccccc2)ncc(C(=O)C2=C(O)C3CCC(C3)C2=O)c1=O (centres unmarked) [Compound 240] as well? 50

Would you mind doing O=C1CCCC(O)=C1C(=O)c1cnc(-c2ccsc2)n(C2CCOCC2)c1=O [Compound 186] as well? 5
